target: Protein-arginine deiminase type-4 (Homo sapiens); experiment: Inhibition of PAD4 (unknown origin) at 37 degC
measurement.name: IC50 (µM)

>  <molecule>
CC(=NN=C(N)N)C1=CC(C)(C)CCC1

>  <units.symbol>
µM

>  <IC50>
1460

$$$$
>  <molecule>
CC1(C)NC(=O)N(CN2CCNCC2)C1=O

>  <units.symbol>
µM

>  <IC50>
1380

$$$$
>  <molecule>
CC1CCc2c(sc3ncn(N)c(=N)c23)C1 (centres undefined)

>  <units.symbol>
µM

>  <IC50>
1760

$$$$
>  <molecule>
C[C@H]1C(=O)Nc2ccc(-c3csc(N=C(N)N)n3)cc21

>  <units.symbol>
µM

>  <IC50>
1320

$$$$

====

molecular target: Protein-arginine deiminase type-4 (Homo sapiens) (UniProt Q9UM07); assay: Inhibition of PAD4 (unknown origin) at 52 degC
Sequence (Q9UM07 whole entry, looked up): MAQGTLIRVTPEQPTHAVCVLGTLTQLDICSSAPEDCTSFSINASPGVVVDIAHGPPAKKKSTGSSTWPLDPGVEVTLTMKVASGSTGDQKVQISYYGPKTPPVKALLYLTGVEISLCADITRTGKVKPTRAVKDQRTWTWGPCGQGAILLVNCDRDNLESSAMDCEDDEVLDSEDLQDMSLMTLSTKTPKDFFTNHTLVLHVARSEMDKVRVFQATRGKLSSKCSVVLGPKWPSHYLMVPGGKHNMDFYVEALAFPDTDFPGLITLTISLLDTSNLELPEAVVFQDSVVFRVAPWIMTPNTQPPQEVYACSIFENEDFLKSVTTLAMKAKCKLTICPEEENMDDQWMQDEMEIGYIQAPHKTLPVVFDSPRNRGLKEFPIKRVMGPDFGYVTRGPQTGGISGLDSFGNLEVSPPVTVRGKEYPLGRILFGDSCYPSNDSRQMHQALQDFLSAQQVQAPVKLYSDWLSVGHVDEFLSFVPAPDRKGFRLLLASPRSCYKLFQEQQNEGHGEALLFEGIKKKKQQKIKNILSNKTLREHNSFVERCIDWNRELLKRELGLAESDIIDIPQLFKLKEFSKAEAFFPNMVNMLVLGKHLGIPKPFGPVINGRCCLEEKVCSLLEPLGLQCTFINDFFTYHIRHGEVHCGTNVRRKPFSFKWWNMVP
pKi: −log10 of the molar value.
measurement.name: pKi

Known results for compounds:
>  <compound>
CC1CCc2c(sc3ncn(N)c(=N)c23)C1 (centres undefined)

>  <measurement.name>
pKi

>  <value.reported>
4.18

$$$$
>  <compound>
CC(=NN=C(N)N)C1=CC(C)(C)CCC1

>  <measurement.name>
pKi

>  <value.reported>
4.16

$$$$

a. CC1(C)NC(=O)N(CN2CCNCC2)C1=O
b. C[C@H]1C(=O)Nc2ccc(-c3csc(N=C(N)N)n3)cc21
q: Field: entry with larger pKi (options a / b ). Reply with the label of the item you choose.
a: b
(b: 3.64, a: 3.43)

====

biological target: Protein-arginine deiminase type-4 (Homo sapiens) (UniProt Q9UM07); test: Inhibition of PAD4 (unknown origin) at 37 degC
measurement.name: Ki (µM)

>  <compound>
CC1(C)NC(=O)N(CN2CCNCC2)C1=O

>  <measurement.target>
Protein-arginine deiminase type-4 (Homo sapiens) (UniProt Q9UM07)

>  <value.reported>
131

$$$$
>  <compound>
CC1CCc2c(sc3ncn(N)c(=N)c23)C1 (centres undefined)

>  <measurement.target>
Protein-arginine deiminase type-4 (Homo sapiens) (UniProt Q9UM07)

>  <value.reported>
153

$$$$
>  <compound>
C[C@H]1C(=O)Nc2ccc(-c3csc(N=C(N)N)n3)cc21

>  <measurement.target>
Protein-arginine deiminase type-4 (Homo sapiens) (UniProt Q9UM07)

>  <value.reported>
115

$$$$
>  <compound>
CC(=NN=C(N)N)C1=CC(C)(C)CCC1

>  <measurement.target>
Protein-arginine deiminase type-4 (Homo sapiens) (UniProt Q9UM07)

>  <value.reported>
127

$$$$

====

biological target: Protein-arginine deiminase type-4 (Homo sapiens) (UniProt Q9UM07); test: Inhibition of PAD4 (unknown origin) at 52 degC
pIC50: −log10 of the molar value.
measurement.name: pIC50

>  <compound>
CC(=NN=C(N)N)C1=CC(C)(C)CCC1

>  <pIC50>
3.10

$$$$
>  <compound>
CC1CCc2c(sc3ncn(N)c(=N)c23)C1 (centres undefined)

>  <pIC50>
3.12

$$$$

P. C[C@H]1C(=O)Nc2ccc(-c3csc(N=C(N)N)n3)cc21
Q. CC1(C)NC(=O)N(CN2CCNCC2)C1=O
q: Of P and Q , whose reported pIC50 is numerically smaller? Reply with the label of the item you choose.
a: Q
